procedure.summary: Solubility experiments in different media, crystal form A of free base
Type: physicochemical
study.conditions: thermodynamic from solid, FeSSIF (simulated intestinal fluid, fed), 37°C
Protocol: 4.1 Experimental objective: The solubility of the crystal form A of free base in media such as pH1 buffer, artificial simulated gastric fluid (FaSSGF), fasted-state artificial simulated intestinal fluid (FaSSIF), and fed-state artificial simulated intestinal fluid (FeSSIF) was tested to provide a basis for the evaluation of the potential of the crystal form being manufactured as a drug. […]
readout.kind: solubility at 24 h (µg/mL)
# unit: µg/mL | format: bare number

Request: For the compound CC(C)c1c(F)cc(N2C[C@H](N(C)S(C)(=O)=O)[C@H]2C)c2cnc(Nc3ccnc(-c4cn(C)nc4Cl)n3)cc12 [crystal form A of free base] , report solubility at 24 h.
Result: 209

These measurements were taken from patent EP4778921A1.
